biological target: EGFR (Homo sapiens); test: X-ray cocrystal structure ([…] Å); purified kinase assay IC50; type: biochemical; set-up: G696-G1022
Sequence (P00533 696-1022): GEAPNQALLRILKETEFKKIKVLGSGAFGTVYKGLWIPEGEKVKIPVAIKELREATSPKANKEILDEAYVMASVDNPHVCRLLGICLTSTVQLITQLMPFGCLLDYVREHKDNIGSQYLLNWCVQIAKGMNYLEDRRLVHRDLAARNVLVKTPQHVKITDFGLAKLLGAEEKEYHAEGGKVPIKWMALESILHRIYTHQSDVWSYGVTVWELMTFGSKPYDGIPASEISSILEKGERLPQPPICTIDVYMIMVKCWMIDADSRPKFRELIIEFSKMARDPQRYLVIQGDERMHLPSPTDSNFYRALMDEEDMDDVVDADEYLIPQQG
ASSAY_ENDPOINT: IC50 (µM)
Give bare numbers, in µM.

Req: Dear colleague, I am looking for the recorded IC50 of the following compound: C[C@@H](Nc1ncnc2ccc(-c3cnc(Cl)c(NS(C)(=O)=O)c3)cc12)c1ccccc1
Resp: 0.0147

====

target: UniProt:P48736; test: biochemical kinase assay at ATP Km apparent; parameters: gene PIK3CG
Sequence (P48736 whole entry): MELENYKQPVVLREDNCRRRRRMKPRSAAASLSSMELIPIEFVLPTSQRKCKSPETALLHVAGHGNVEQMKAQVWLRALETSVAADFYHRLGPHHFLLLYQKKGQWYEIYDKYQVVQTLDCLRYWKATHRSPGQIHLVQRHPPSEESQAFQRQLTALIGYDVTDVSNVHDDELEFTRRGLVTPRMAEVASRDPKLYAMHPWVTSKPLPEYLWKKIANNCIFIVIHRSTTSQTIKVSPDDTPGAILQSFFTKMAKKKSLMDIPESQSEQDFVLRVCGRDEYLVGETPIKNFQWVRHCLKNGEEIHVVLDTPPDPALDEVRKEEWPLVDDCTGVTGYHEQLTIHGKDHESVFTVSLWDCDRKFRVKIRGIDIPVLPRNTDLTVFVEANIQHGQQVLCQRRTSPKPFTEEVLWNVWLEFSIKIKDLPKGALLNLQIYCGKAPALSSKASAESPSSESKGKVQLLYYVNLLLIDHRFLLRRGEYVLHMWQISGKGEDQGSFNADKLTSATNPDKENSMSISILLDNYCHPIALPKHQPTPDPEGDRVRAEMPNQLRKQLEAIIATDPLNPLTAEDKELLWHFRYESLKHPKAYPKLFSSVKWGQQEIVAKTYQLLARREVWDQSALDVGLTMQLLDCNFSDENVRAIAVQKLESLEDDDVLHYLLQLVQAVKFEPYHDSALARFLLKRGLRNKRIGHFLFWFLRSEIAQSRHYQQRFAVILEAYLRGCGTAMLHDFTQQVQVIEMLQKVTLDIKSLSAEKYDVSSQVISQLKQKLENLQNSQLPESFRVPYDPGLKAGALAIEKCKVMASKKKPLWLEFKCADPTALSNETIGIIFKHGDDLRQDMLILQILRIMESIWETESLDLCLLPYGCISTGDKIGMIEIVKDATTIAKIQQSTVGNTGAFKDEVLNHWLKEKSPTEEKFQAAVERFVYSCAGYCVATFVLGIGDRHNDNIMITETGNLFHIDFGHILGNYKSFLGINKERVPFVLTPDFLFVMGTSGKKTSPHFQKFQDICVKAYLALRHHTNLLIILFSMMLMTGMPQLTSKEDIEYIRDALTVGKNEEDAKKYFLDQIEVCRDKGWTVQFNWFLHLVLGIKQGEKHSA
ASSAY_ENDPOINT: pIC50
One number for each entry, as −log10 of the molar value.

Req: Dear colleague, I am looking for the recorded pIC50 of the following compound: COc1ncc(-c2ccc3nccc(-c4ccnnc4)c3c2)cc1NS(=O)(=O)c1ccc(F)cc1F
Resp: 9.21

====

Values of IC50 reported for HER2 (Homo sapiens, UniProt P04626) appear below.
Answers are plain numbers, in nM.

Req: Dear colleague, I am looking for the recorded IC50 of the following compound: C[C@@H](Nc1ncnc2ccc(-c3cnc(Cl)c(NS(C)(=O)=O)c3)cc12)c1ccccc1
Resp: 2500

Now consider the entry below.
Req: Dear colleague, I am looking for the recorded IC50 of the following compound: CCN1CCN(Cc2ccc(-c3cc4c(N[C@H](C)c5ccccc5)ncnc4[nH]3)cc2)CC1
Resp: 26.1

====

Exercise: for every item that follows, state its recorded IC50.
target: HER2 (Homo sapiens, UniProt P04626)
Sequence (P04626 whole entry): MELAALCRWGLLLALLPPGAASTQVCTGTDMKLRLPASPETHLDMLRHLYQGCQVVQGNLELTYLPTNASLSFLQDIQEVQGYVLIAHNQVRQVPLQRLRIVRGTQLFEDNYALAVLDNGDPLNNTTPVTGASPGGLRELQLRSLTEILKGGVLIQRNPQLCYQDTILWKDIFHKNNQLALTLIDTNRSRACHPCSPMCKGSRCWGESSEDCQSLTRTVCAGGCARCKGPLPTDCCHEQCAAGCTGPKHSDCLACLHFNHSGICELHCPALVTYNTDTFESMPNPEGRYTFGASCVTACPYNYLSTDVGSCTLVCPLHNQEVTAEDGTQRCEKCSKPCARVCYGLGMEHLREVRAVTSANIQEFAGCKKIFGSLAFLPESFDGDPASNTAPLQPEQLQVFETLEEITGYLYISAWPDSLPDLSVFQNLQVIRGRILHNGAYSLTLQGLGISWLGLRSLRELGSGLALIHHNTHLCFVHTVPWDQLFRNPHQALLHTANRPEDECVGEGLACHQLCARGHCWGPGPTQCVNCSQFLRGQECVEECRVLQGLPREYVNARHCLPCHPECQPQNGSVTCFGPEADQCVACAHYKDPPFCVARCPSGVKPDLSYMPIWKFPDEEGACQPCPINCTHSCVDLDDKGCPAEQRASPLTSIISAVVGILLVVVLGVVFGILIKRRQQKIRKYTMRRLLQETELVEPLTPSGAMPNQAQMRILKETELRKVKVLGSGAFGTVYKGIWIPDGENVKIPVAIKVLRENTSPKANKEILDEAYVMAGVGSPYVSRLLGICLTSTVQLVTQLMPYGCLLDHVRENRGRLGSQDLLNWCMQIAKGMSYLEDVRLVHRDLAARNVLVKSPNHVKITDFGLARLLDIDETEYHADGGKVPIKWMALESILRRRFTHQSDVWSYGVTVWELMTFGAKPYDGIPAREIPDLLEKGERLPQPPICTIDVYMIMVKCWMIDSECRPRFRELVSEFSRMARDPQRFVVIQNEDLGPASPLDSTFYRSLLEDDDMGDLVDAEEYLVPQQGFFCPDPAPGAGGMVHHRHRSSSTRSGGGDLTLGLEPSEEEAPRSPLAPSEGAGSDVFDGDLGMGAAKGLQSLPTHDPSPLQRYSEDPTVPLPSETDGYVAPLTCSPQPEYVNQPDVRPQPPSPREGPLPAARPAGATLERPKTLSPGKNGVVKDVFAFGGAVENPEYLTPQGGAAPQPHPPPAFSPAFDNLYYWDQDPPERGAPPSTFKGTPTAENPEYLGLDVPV

Req: Dear colleague, I am looking for the recorded IC50 of the following compound: COc1ncc(-c2ccc3nccc(-c4ccnnc4)c3c2)cc1NS(=O)(=O)c1ccc(F)cc1F
Resp: > 10 µM

Req: Further, for Cc1nc(NC(=O)N2CCC[C@H]2C(N)=O)sc1-c1ccnc(C(C)(C)C(F)(F)F)c1 ?
Resp: > 10 µM

Now consider the entry below.
Req: Dear colleague, I am looking for the recorded IC50 of the following compound: COc1c(OCCCN2CCOCC2)ccc2c1N=C(NC(=O)c1cnc(N)nc1)N1CCN=C21
Resp: > 10 µM
